Reference source for all entries: PubChem BioAssay AID1963964

compounds and their reported IC50
test system: 997726-040-R-J2-PDC tumor spheroids, viability; experiment: Anticancer human tumor 997726-040-R-J2-PDC patient-derived squamous cell lung carcinoma cell line growth inhibition [PI3K]; conditions: curve of first compound; second compound 0.0316 µM; spheroids with HUVEC and MSC
Number in nM, nothing else.

CC(C)n1nc(-c2ccc3oc(N)nc3c2)c2c(N)ncnc21 + Cc1nc(NC(=O)N2CCCC2C(N)=O)sc1-c1ccnc(C(C)(C)C(F)(F)F)c1; 17.1
CC1(C)CCC(Nc2ncc(C(F)(F)F)c(-c3c[nH]c4c(P(C)(C)=O)c(C#N)ccc34)n2)CN1 (configuration not stated) + CC(Nc1ncnc2nc[nH]c12)c1cc2cccc(Cl)c2c(=O)n1-c1ccccc1; 496
CC(C)n1nc(-c2ccc3oc(N)nc3c2)c2c(N)ncnc21 + CC(Nc1ncnc2nc[nH]c12)c1cc2cccc(Cl)c2c(=O)n1-c1ccccc1; 23.4
C[C@@H](NC(=O)c1ncnc(N)c1Cl)c1ncc(C(=O)Nc2cc(C(F)(F)F)c(Cl)cn2)s1 + CC(Nc1ccc2c(c1)OCCn1cc(N3C(=O)OCC3C(F)F)nc1-2)C(N)=O; 6260
CC(=O)c1c(C)c2cnc(Nc3ccc(N4CCNCC4)cn3)nc2n(C2CCCC2)c1=O + CC(Nc1ccc2c(c1)OCCn1cc(N3C(=O)OCC3C(F)F)nc1-2)C(N)=O; 44.5
C#Cc1c(F)ccc2cc(O)cc(-c3ncc4c(N5CC6CCC(C5)N6)nc(OCC56CCCN5CC(F)C6)nc4c3F)c12 (configuration not stated) + CC(Nc1ccc2c(c1)OCCn1cc(N3C(=O)OCC3C(F)F)nc1-2)C(N)=O; 5350
Cn1nccc1Nc1nccc(-c2ccn(C(CO)c3ccc(Cl)c(F)c3)c(=O)c2)n1 (configuration not stated) + CC(Nc1ccc2c(c1)OCCn1cc(N3C(=O)OCC3C(F)F)nc1-2)C(N)=O; 601
Cn1nccc1Nc1nccc(-c2ccn(C(CO)c3ccc(Cl)c(F)c3)c(=O)c2)n1 (configuration not stated) + Cc1nc(NC(=O)N2CCCC2C(N)=O)sc1-c1ccnc(C(C)(C)C(F)(F)F)c1; 6270
Cn1ncc(Cl)c1-c1cc(C(=O)NC(CN)Cc2cccc(F)c2)sc1Cl (configuration not stated) + CC(Nc1ncnc2nc[nH]c12)c1cc2cccc(Cl)c2c(=O)n1-c1ccccc1; 112
CCCS(=O)(=O)Nc1ccc(F)c(C(=O)c2c[nH]c3ncc(-c4ccc(Cl)cc4)cc23)c1F + CC(Nc1ncnc2nc[nH]c12)c1cc2cccc(Cl)c2c(=O)n1-c1ccccc1; 7290

Query: I have this compound here, CCCS(=O)(=O)Nc1ccc(F)c(C(=O)c2c[nH]c3ncc(-c4ccc(Cl)cc4)cc23)c1F + CC(Nc1ccc2c(c1)OCCn1cc(N3C(=O)OCC3C(F)F)nc1-2)C(N)=O , and I need its recorded IC50.
Response: 4990

Query: What about this compound? Cn1cnc2c(F)c(Nc3ccc(Br)cc3Cl)c(C(=O)NOCCO)cc21 + CC(Nc1ccc2c(c1)OCCn1cc(N3C(=O)OCC3C(F)F)nc1-2)C(N)=O
Response: 13.8

###

compounds and their reported viability, T/C
Tested on: 997726-040-R-J2-PDC tumor spheroids, viability
Assay: Anticancer human tumor 997726-040-R-J2-PDC cell line growth inhibition [PI3K];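 note: spheroids exposed to compounds for seven days before readout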
Conditions: second compound 1 µM; first compound 10 µM; stronger effect = lower value; spheroids with HUVEC and MSC
From the text: Combinatorial screen of targeted agents with the PI3K inhibitors inavolisib, alpelisib, duvelisib, and copanlisib in multi-cell type tumor spheroids A high-throughput screen of multi-cell type tumor spheroids was designed to identify active combinations of targeted small molecules and PI3K pathway inhibitors. […] Compounds. […] If the clinical Cmax for an agent had not been determined, the highest concentration tested was 10 microM. […]

Known results for compounds:
CCCS(=O)(=O)Nc1ccc(F)c(C(=O)c2c[nH]c3ncc(-c4ccc(Cl)cc4)cc23)c1F + CC(Nc1ncnc2nc[nH]c12)c1cc2cccc(Cl)c2c(=O)n1-c1ccccc1; 23%
CC(Cn1ccc(-c2ccc(C#N)c(Cl)c2)n1)NC(=O)c1cc(C(C)O)[nH]n1 (stereo unspecified) + CC(Nc1ncnc2nc[nH]c12)c1cc2cccc(Cl)c2c(=O)n1-c1ccccc1; 88.2%
CC(Cn1ccc(-c2ccc(C#N)c(Cl)c2)n1)NC(=O)c1cc(C(C)O)[nH]n1 (stereo unspecified) + COc1c(OCCCN2CCOCC2)ccc2c3n(c(=NC(=O)c4cnc(N)nc4)nc12)CCN3; 1.51%
C[C@@H](NC(=O)c1ncnc(N)c1Cl)c1ncc(C(=O)Nc2cc(C(F)(F)F)c(Cl)cn2)s1 + CC(Nc1ccc2c(c1)OCCn1cc(N3C(=O)OCC3C(F)F)nc1-2)C(N)=O; 24.1%
C#Cc1c(F)ccc2cc(O)cc(-c3ncc4c(N5CC6CCC(C5)N6)nc(OCC56CCCN5CC(F)C6)nc4c3F)c12 (stereo unspecified) + CC(Nc1ncnc2nc[nH]c12)c1cc2cccc(Cl)c2c(=O)n1-c1ccccc1; 63.5%
Cn1ncc(Cl)c1-c1cc(C(=O)NC(CN)Cc2cccc(F)c2)sc1Cl (stereo unspecified) + Cc1nc(NC(=O)N2CCCC2C(N)=O)sc1-c1ccnc(C(C)(C)C(F)(F)F)c1; 2.53%
C[C@@H](NC(=O)c1ncnc(N)c1Cl)c1ncc(C(=O)Nc2cc(C(F)(F)F)c(Cl)cn2)s1 + Cc1nc(NC(=O)N2CCCC2C(N)=O)sc1-c1ccnc(C(C)(C)C(F)(F)F)c1; 35.4%
C#Cc1c(F)ccc2cc(O)cc(-c3ncc4c(N5CC6CCC(C5)N6)nc(OCC56CCCN5CC(F)C6)nc4c3F)c12 (stereo unspecified) + COc1c(OCCCN2CCOCC2)ccc2c3n(c(=NC(=O)c4cnc(N)nc4)nc12)CCN3; 0.86%
CC(C)NCC(C(=O)N1CCN(c2ncnc3c2C(C)CC3O)CC1)c1ccc(Cl)cc1 (stereo unspecified) + CC(Nc1ccc2c(c1)OCCn1cc(N3C(=O)OCC3C(F)F)nc1-2)C(N)=O; 5.34%
C=CC(=O)N1CCN(c2nc(=O)n(-c3c(C)ccnc3C(C)C)c3nc(-c4c(O)cccc4F)c(F)cc23)C(C)C1 (stereo unspecified) + CC(Nc1ncnc2nc[nH]c12)c1cc2cccc(Cl)c2c(=O)n1-c1ccccc1; 109%

For the next question, use this compound.
Query: I have this compound here, Cn1nccc1Nc1nccc(-c2ccn(C(CO)c3ccc(Cl)c(F)c3)c(=O)c2)n1 (stereo unspecified) + CC(Nc1ncnc2nc[nH]c12)c1cc2cccc(Cl)c2c(=O)n1-c1ccccc1 , and I need its recorded viability, T/C.
Response: 60.2%

###

test system: 997726-040-R-J2-PDC tumor spheroids, viability; assay: Anticancer human tumor 997726-040-R-J2-PDC cell line growth inhibition [PI3K]; details: second compound 1 µM; first compound 0.1 µM; stronger effect = lower value; spheroids with HUVEC and MSC;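 note: spheroids exposed to compounds for seven days before readout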
Threshold-based label: viability, T/C under 30% gives fulfilled, viability, T/C not under 30% gives not fulfilled.

C=CC(=O)N1CCN(c2nc(=O)n(-c3c(C)ccnc3C(C)C)c3nc(-c4c(O)cccc4F)c(F)cc23)C(C)C1 (stereo unspecified) + Cc1nc(NC(=O)N2CCCC2C(N)=O)sc1-c1ccnc(C(C)(C)C(F)(F)F)c1; not fulfilled
CC1(C)CCC(Nc2ncc(C(F)(F)F)c(-c3c[nH]c4c(P(C)(C)=O)c(C#N)ccc34)n2)CN1 (stereo unspecified) + CC(Nc1ncnc2nc[nH]c12)c1cc2cccc(Cl)c2c(=O)n1-c1ccccc1; not fulfilled
CC(=O)c1c(C)c2cnc(Nc3ccc(N4CCNCC4)cn3)nc2n(C2CCCC2)c1=O + Cc1nc(NC(=O)N2CCCC2C(N)=O)sc1-c1ccnc(C(C)(C)C(F)(F)F)c1; fulfilled

Query: Would you kindly verify if viability, T/C of Cn1nccc1Nc1nccc(-c2ccn(C(CO)c3ccc(Cl)c(F)c3)c(=O)c2)n1 (stereo unspecified) + CC(Nc1ccc2c(c1)OCCn1cc(N3C(=O)OCC3C(F)F)nc1-2)C(N)=O is strictly less than 30%?
Response: fulfilled

Query: What about this compound? C=CC(=O)N1CCN(c2nc(=O)n(-c3c(C)ccnc3C(C)C)c3nc(-c4c(O)cccc4F)c(F)cc23)C(C)C1 (stereo unspecified) + COc1c(OCCCN2CCOCC2)ccc2c3n(c(=NC(=O)c4cnc(N)nc4)nc12)CCN3
Response: fulfilled

###

test system: 997726-040-R-J2-PDC tumor spheroids, viability; experiment: Anticancer human tumor 997726-040-R-J2-PDC cell line growth inhibition [PI3K]; conditions: curve of first compound; second compound 0.00316 µM; spheroids with HUVEC and MSC;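 note: spheroids exposed to compounds for seven days before readout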
result-type: log10 IC50 (log10 of the value in nM)
# values: log10(IC50), units nM

Known results for compounds:
Cn1ncc(Cl)c1-c1cc(C(=O)NC(CN)Cc2cccc(F)c2)sc1Cl (stereo unspecified) + CC(Nc1ccc2c(c1)OCCn1cc(N3C(=O)OCC3C(F)F)nc1-2)C(N)=O; 1.92
CC(C)NCC(C(=O)N1CCN(c2ncnc3c2C(C)CC3O)CC1)c1ccc(Cl)cc1 (stereo unspecified) + COc1c(OCCCN2CCOCC2)ccc2c3n(c(=NC(=O)c4cnc(N)nc4)nc12)CCN3; 2.28
CCCS(=O)(=O)Nc1ccc(F)c(C(=O)c2c[nH]c3ncc(-c4ccc(Cl)cc4)cc23)c1F + COc1c(OCCCN2CCOCC2)ccc2c3n(c(=NC(=O)c4cnc(N)nc4)nc12)CCN3; 3.82
CC(C)NCC(C(=O)N1CCN(c2ncnc3c2C(C)CC3O)CC1)c1ccc(Cl)cc1 (stereo unspecified) + CC(Nc1ccc2c(c1)OCCn1cc(N3C(=O)OCC3C(F)F)nc1-2)C(N)=O; 2.43
CC1(C)CCC(CN2CCN(c3ccc(C(=O)NS(=O)(=O)c4ccc(NCC5CCOCC5)c([N+](=O)[O-])c4)c(Oc4cnc5[nH]ccc5c4)c3)CC2)=C(c2ccc(Cl)cc2)C1 + CC(Nc1ccc2c(c1)OCCn1cc(N3C(=O)OCC3C(F)F)nc1-2)C(N)=O; 3.96

Query: I have this compound here, CC(C)n1nc(-c2ccc3oc(N)nc3c2)c2c(N)ncnc21 + CC(Nc1ccc2c(c1)OCCn1cc(N3C(=O)OCC3C(F)F)nc1-2)C(N)=O , and I need its recorded log10 IC50.
Response: 1.24

Query: What about this compound? CCCS(=O)(=O)Nc1ccc(F)c(C(=O)c2c[nH]c3ncc(-c4ccc(Cl)cc4)cc23)c1F + CC(Nc1ccc2c(c1)OCCn1cc(N3C(=O)OCC3C(F)F)nc1-2)C(N)=O
Response: 3.82
